B1: CPEB3 Ribozyme (parent)
chain: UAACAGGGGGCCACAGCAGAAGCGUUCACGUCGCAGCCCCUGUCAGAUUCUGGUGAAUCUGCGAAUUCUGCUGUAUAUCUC

Variants of: B1
test description: self-cleavage, relative activity (ratio to wild type); higher = more cleavage; in vitro, sequencing
readout name: self-cleavage

query_sequence=UAACAGGGGGCCACAGCAGAAGCGUUCACGGCGCAGCCCCUGUCAGAUUCUGGUGAAUCUGCGAAUUCUGCUGUAUAUCAC readout_name=self-cleavage reported_value=0.59
query_sequence=UAACAGGGGGCCGCAGCAGAAGCGUUCACGUCGCAGCCCCUGUCAGAUCCUGGUGAAUCUGCGAAUUCUGCUGUAUAUCUC readout_name=self-cleavage reported_value=0.25
query_sequence=UAACAGGGGGCCACAGCAGAAGCGUUCCCGUCGCAGCCCCUGUCAGAUACUGGUGAAUCUGCGAAUUCUGCUGUAUAUCUC readout_name=self-cleavage reported_value=0.26
query_sequence=UAACAGGAGGCCACAGCAGAAGCGUUCACGUCGCAGCCCCUGUCAGAUUCUGGCGAAUCUGCGAAUUCUGCUGUAUAUCUC readout_name=self-cleavage reported_value=0.14
query_sequence=UAGCAGGGGGCCUCAGCAGAAGCGUUCACGUCGCAGCCCCUGUCAGAUUCUGGUGAAUCUGCGAAUUCUGCUGUAUAUCUC readout_name=self-cleavage reported_value=1.02
query_sequence=UAACAGGGGGCCACAGCGGAAGCGUUCACGUCGCAGCCCCUGUCAGAUUCUGGUGAAUCUGCGAAUUCUGAUGUAUAUCUC readout_name=self-cleavage reported_value=0.29
query_sequence=UAACGGGGGGCCACAGCAGAAGCGGUCACGUCGCAGCCCCUGUCAGAUUCUGGUGAAUCUGCGAAUUCUGCUGUAUAUCUC readout_name=self-cleavage reported_value=0.55
query_sequence=UAACAGGGGGCCACAGCAGAAGCGUUCACGUCGCAGCCCCUGUCAGAUUCAGGUGAAUCUGCGAAUUCUGCUGUAUAUCAC readout_name=self-cleavage reported_value=1.07
query_sequence=UAACAGGGGGCCACAGCAGAGGCGUUCACGUCGCAGCCCCUGACAGAUUCUGGUGAAUCUGCGAAUUCUGCUGUAUAUCUC readout_name=self-cleavage reported_value=0.75
query_sequence=UAACAGGGGGCCACAGCAGAAGCGUUCACGUCGCAGCUCCUGUCAGAUUCUGGUUAAUCUGCGAAUUCUGCUGUAUAUCUC readout_name=self-cleavage reported_value=0.8
query_sequence=UAACAGGGGGACACAGCAGAAGCGUUCACGUCGCAGCCCCUGUCAGAUUCUGGUGAAUCUGCGAACUCUGCUGUAUAUCUC readout_name=self-cleavage reported_value=0.12
query_sequence=UAACAGGGGGCCACAGCAGAAUCGUUCACGUCGCAGCCCCUGUCAAAUUCUGGUGAAUCUGCGAAUUCUGCUGUAUAUCUC readout_name=self-cleavage reported_value=0.17
query_sequence=UAACAGGGGGCCACAGCAGAAGCGUUCAUGUCGCAGCCCCUGGCAGAUUCUGGUGAAUCUGCGAAUUCUGCUGUAUAUCUC readout_name=self-cleavage reported_value=0.48
query_sequence=UAACAGGGGGCCACAGCAGAAGCGUUCACGUCGCAGCCCCUGUCAGAUUCUGGUGUAUCUGCGAAUACUGCUGUAUAUCUC readout_name=self-cleavage reported_value=0.43
query_sequence=UAACAGGGGGCCAUAGCAGAAGCGUUCACGUCGCAGCCCCUGUCAGAUUCUGGUGAAUCUCCGAAUUCUGCUGUAUAUCUC readout_name=self-cleavage reported_value=0.35
query_sequence=UAACAGGGGGCCACAGCAGAAGUGUUCACGUCGCAGCCCCUGUCAGAUUCUGGUGAAUCCGCGAAUUCUGCUGUAUAUCUC readout_name=self-cleavage reported_value=0.15
query_sequence=UAACAGGGGGCCACAGCAGAAGCGUUCACGUCGCAGCCCCUGUCAGAUCCUGGUGAAUCUGUGAAUUCUGCUGUAUAUCUC readout_name=self-cleavage reported_value=0.33
query_sequence=UAACAGGGGGCCACAACAGAAGCGUUCACGUCGCAGCCCCUGUCAGAUUCUGGUGGAUCUGCGAAUUCUGCUGUAUAUCUC readout_name=self-cleavage reported_value=0.4
query_sequence=UAACAGGGGGCCACAGCAGAAGCGUUCACGUCGCAGCCCCUGCCAAAUUCUGGUGAAUCUGCGAAUUCUGCUGUAUAUCUC readout_name=self-cleavage reported_value=0.22
query_sequence=UAACAGGGGGCCGCAGCAGAAGCGUUCACGUCGCAGCCCCUGUCAGAUUCUGGUGAAUCUGCGUAUUCUGCUGUAUAUCUC readout_name=self-cleavage reported_value=0.32
query_sequence=UAACAGGGGGCCACGGCAGAAGCGUUCACGUCGCAGCCGCUGUCAGAUUCUGGUGAAUCUGCGAAUUCUGCUGUAUAUCUC readout_name=self-cleavage reported_value=0.29
query_sequence=UAACAGGGAGCCACAGCAGAAGCGUUCACGUCGCAGCCCCUGUCAGAUUCUGGUGAAUCUGCGAAUUCUGCUGUAUUUCUC readout_name=self-cleavage reported_value=0.23
